Source listed as patent US12448373B2.

target: CXCR7 (Homo sapiens); test: CXCR7 β-arrestin recruitment assay in CHO-CXCR7 cells (ProLink/EA β-galactosidase complementation), induced by human SDF-1a; conditions: assay buffer, SDF-1a at EC50 concentration
Sequence (P25106 whole entry): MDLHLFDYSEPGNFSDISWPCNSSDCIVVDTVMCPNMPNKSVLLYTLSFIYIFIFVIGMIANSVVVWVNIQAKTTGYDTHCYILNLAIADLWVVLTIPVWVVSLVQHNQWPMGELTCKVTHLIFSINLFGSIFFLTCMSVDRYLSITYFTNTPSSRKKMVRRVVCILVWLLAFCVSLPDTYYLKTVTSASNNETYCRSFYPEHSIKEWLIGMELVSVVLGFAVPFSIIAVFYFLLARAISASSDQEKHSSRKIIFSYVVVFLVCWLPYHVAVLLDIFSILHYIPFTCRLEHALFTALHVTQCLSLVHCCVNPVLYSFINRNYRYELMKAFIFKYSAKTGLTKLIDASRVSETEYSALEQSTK
pIC50: −log10 of the molar value.
quantity_kind: pIC50

INSERT INTO results (molecule, study_system, result) VALUES
  ('CC[C@@H](NC(=O)CC1(NC(=O)c2cc(-c3ccc(F)cc3F)on2)CN(C2CCCCC2)C1)c1ccccc1', 'CXCR7 (Homo sapiens)', '7.00 to 8.30'),
  ('Cc1cc(C(C)C)cc(C(C)(C)NC(=O)CC2(NC(=O)c3nnc(-c4ccc(F)cc4F)s3)CN([C@H]3CC[C@](C)(O)CC3)C2)n1', 'CXCR7 (Homo sapiens)', '6.00 to 7.00'),
  ('Cc1cc(C(C)(C)NC(=O)CC2(NC(=O)c3cc(-c4ccc(F)cc4F)on3)CN([C@H]3CC[C@@](C)(O)CC3)C2)ccn1', 'CXCR7 (Homo sapiens)', '> 8.30'),
  ('Cc1cccnc1C(C)(C)NC(=O)CC1(NC(=O)c2nnc(-c3ccc(F)cc3F)s2)CN([C@H]2CC[C@](C)(O)CC2)C1', 'CXCR7 (Homo sapiens)', '6.00 to 7.00'),
  ('COc1cc(C(C)(C)NC(=O)CC2(NC(=O)c3cc(-c4ccc(F)cc4F)on3)CN([C@H]3CC[C@@](C)(O)CC3)C2)ccn1', 'CXCR7 (Homo sapiens)', '> 8.30');

I need pIC50 for every entry listed below, if you could help.
1. Cc1nc(C(C)(C)NC(=O)CC2(NC(=O)c3cc(-c4ccc(F)cc4F)on3)CN(C3CCC4(CC3)COC4)C2)sc1C
2. CC(C)(NC(=O)CC1(NC(=O)c2cc(-c3ccc(F)cc3F)on2)CN(C2CCC3(CC2)COC3)C1)c1cccc(F)c1
3. Cc1cncc(C(C)(C)NC(=O)CC2(NC(=O)c3cc(-c4ccc(F)cc4F)on3)CN([C@H]3CC[C@@](C)(O)CC3)C2)c1
4. CC(C)(NC(=O)CC1(NC(=O)c2cc(-c3ccc(F)cc3F)on2)CN([C@H]2CC[C@](C)(O)CC2)C1)c1ccnc(C2CC2)c1
5. CC(C)(NC(=O)CC1(NC(=O)c2cc(-c3ccc(F)cc3F)on2)CN([C@H]2CC[C@@](C)(O)CC2)C1)c1cc(Cl)ccc1F
6. CC(C)(NC(=O)CC1(NC(=O)c2cc(-c3ccc(F)cc3F)on2)CN([C@H]2CC[C@](C)(O)CC2)C1)c1ccc(F)c(F)c1

-- reply
1. 6.00 to 7.00
2. 7.00 to 8.30
3. 7.00 to 8.30
4. 7.00 to 8.30
5. > 8.30
6. 7.00 to 8.30
